src = patent US20230372301A1

# PROTOCOL_SUMMARY: Pharmacokinetics of single oral doses of nirogacestat dihydrobromide
# Assay type: in vivo, human
# CONDITION_CONTEXT: human, in vivo, po, 50 mg, COHORT 3: 50 mg, Period 1, read-out: Vz/F, Median
Structures can show the parent of a compound that is named as a salt.
READOUT_TYPE: Vd/F (L)
I only need the number, in L, no unit after it.

input: Need Vd/F of CCC[C@H](N[C@H]1CCc2cc(F)cc(F)c2C1)C(=O)Nc1cn(C(C)(C)CNCC(C)(C)C)cn1 [nirogacestat dihydrobromide] , thanks.
output: 2730

----------
# PROTOCOL_SUMMARY: Pharmacokinetics of single oral doses of nirogacestat dihydrobromide
# Assay type: in vivo, human
# CONDITION_CONTEXT: human, in vivo, po, 150 mg, COHORT 1: 150 mg (1 × 150 mg), Period 2, read-out: AUClast, Median
Structures can show the parent of a compound that is named as a salt.
READOUT_TYPE: AUC(0-t) (ng·h/mL)
I only need the number, in ng·h/mL, no unit after it.

input: Need AUC(0-t) of CCC[C@H](N[C@H]1CCc2cc(F)cc(F)c2C1)C(=O)Nc1cn(C(C)(C)CNCC(C)(C)C)cn1 [nirogacestat dihydrobromide] , thanks.
output: 3040

----------
# PROTOCOL_SUMMARY: Pharmacokinetics of single oral doses of nirogacestat dihydrobromide
# Format: in vivo, human
# CONDITION_CONTEXT: human, in vivo, po, 50 mg, COHORT 3: 50 mg, Period 1, read-out: Half-life, Geometric Mean (converted)
Structures can show the parent of a compound that is named as a salt.
READOUT_TYPE: half-life (h)
I only need the number, in h, no unit after it.

input: Need half-life of CCC[C@H](N[C@H]1CCc2cc(F)cc(F)c2C1)C(=O)Nc1cn(C(C)(C)CNCC(C)(C)C)cn1 [nirogacestat dihydrobromide] , thanks.
output: 19.3

----------
# PROTOCOL_SUMMARY: Pharmacokinetics of single oral doses of nirogacestat dihydrobromide
# Type: in vivo, human
# CONDITION_CONTEXT: human, in vivo, po, 150 mg, COHORT 1: 150 mg (1 × 150 mg), Period 2, read-out: AUClast, Geometric Mean
Counter-ions that a name gives are not always drawn.
READOUT_TYPE: AUC(0-t)

input: Need AUC(0-t) of CCC[C@H](N[C@H]1CCc2cc(F)cc(F)c2C1)C(=O)Nc1cn(C(C)(C)CNCC(C)(C)C)cn1 [nirogacestat dihydrobromide] , thanks.
output: 2930 ng·h/mL

----------
# PROTOCOL_SUMMARY: Pharmacokinetics of single oral doses of nirogacestat dihydrobromide
# Type: in vivo, human
# CONDITION_CONTEXT: human, in vivo, po, 100 mg, COHORT 2: 100 mg, Period 1, read-out: AUClast, Median
Counter-ions that a name gives are not always drawn.
READOUT_TYPE: AUC(0-t)

input: Need AUC(0-t) of CCC[C@H](N[C@H]1CCc2cc(F)cc(F)c2C1)C(=O)Nc1cn(C(C)(C)CNCC(C)(C)C)cn1 [nirogacestat dihydrobromide] , thanks.
output: 1660 ng·h/mL

----------
# PROTOCOL_SUMMARY: Pharmacokinetics of single oral doses of nirogacestat dihydrobromide
# Format: in vivo, human
# CONDITION_CONTEXT: human, in vivo, po, 50 mg, COHORT 3: 50 mg, Period 1, read-out: AUCinf, Geometric Mean
Where a name gives a salt, the structure may show the parent alone.
READOUT_TYPE: AUC(0-inf) (ng·h/mL)
I only need the number, in ng·h/mL, no unit after it.

input: Need AUC(0-inf) of CCC[C@H](N[C@H]1CCc2cc(F)cc(F)c2C1)C(=O)Nc1cn(C(C)(C)CNCC(C)(C)C)cn1 [nirogacestat dihydrobromide] , thanks.
output: 571

----------
# PROTOCOL_SUMMARY: Pharmacokinetics of single oral doses of nirogacestat dihydrobromide
# Type: in vivo, human
# CONDITION_CONTEXT: human, in vivo, po, 150 mg, COHORT 1: 150 mg (3 × 50 mg), Period 1, read-out: AUClast, Median
Where a name gives a salt, the structure may show the parent alone.
READOUT_TYPE: AUC(0-t) (ng·h/mL)
I only need the number, in ng·h/mL, no unit after it.

input: Need AUC(0-t) of CCC[C@H](N[C@H]1CCc2cc(F)cc(F)c2C1)C(=O)Nc1cn(C(C)(C)CNCC(C)(C)C)cn1 [nirogacestat dihydrobromide] , thanks.
output: 2580

----------
# PROTOCOL_SUMMARY: Pharmacokinetics of single oral doses of nirogacestat dihydrobromide
# Assay type: in vivo, human
# CONDITION_CONTEXT: human, in vivo, po, 150 mg, COHORT 1: 150 mg (3 × 50 mg), Period 1, read-out: AUClast, Geometric Mean
Counter-ions that a name gives are not always drawn.
READOUT_TYPE: AUC(0-t) (ng·h/mL)
I only need the number, in ng·h/mL, no unit after it.

input: Need AUC(0-t) of CCC[C@H](N[C@H]1CCc2cc(F)cc(F)c2C1)C(=O)Nc1cn(C(C)(C)CNCC(C)(C)C)cn1 [nirogacestat dihydrobromide] , thanks.
output: 2960

----------
# PROTOCOL_SUMMARY: Pharmacokinetics of single oral doses of nirogacestat dihydrobromide
# Type: in vivo, human
# CONDITION_CONTEXT: human, in vivo, po, 100 mg, COHORT 2: 100 mg, Period 1, read-out: Cmax, Geometric Mean
Structures can show the parent of a compound that is named as a salt.
READOUT_TYPE: Cmax (ng/mL)
I only need the number, in ng/mL, no unit after it.

input: Need Cmax of CCC[C@H](N[C@H]1CCc2cc(F)cc(F)c2C1)C(=O)Nc1cn(C(C)(C)CNCC(C)(C)C)cn1 [nirogacestat dihydrobromide] , thanks.
output: 435

----------
# PROTOCOL_SUMMARY: Pharmacokinetics of single oral doses of nirogacestat dihydrobromide
# Type: in vivo, human
# CONDITION_CONTEXT: human, in vivo, po, 100 mg, COHORT 2: 100 mg, Period 1, read-out: Tmax, Median
Where a name gives a salt, the structure may show the parent alone.
READOUT_TYPE: Tmax (h)
I only need the number, in h, no unit after it.

input: Need Tmax of CCC[C@H](N[C@H]1CCc2cc(F)cc(F)c2C1)C(=O)Nc1cn(C(C)(C)CNCC(C)(C)C)cn1 [nirogacestat dihydrobromide] , thanks.
output: 1.28
